# System: ovarian cancer cell lines
# procedure_details: Cell based assay, cell viability (CellTiter-Glo), ovarian cancer cell lines
# setup_conditions: Homo sapiens; OVCAR-3 cells
pIC50: −log10 of the molar value.
Listed next: entries and their corresponding pIC50.

Below, 3 molecules whose answers are already recorded.
CC(=O)c1c([S+]([O-])CN2C(=O)c3ccccc3C2=O)[nH]c2c(Cl)ccc(Cl)c2c1=O (stereo not shown)	< 5.70
Cc1cc(C[S+]([O-])c2[nH]c3c(Br)ccc(Cl)c3c(=O)c2C(=O)C(C)C)no1 (stereo not shown)	6.42
CC(=O)c1c([S+]([O-])Cc2ccc(Cl)nc2)[nH]c2c(Br)ccc(Cl)c2c1=O (stereo not shown)	6.08

The molecule CSc1[nH]c2ccc(F)cc2c(=O)c1C(C)=O , when measured on ovarian cancer cell lines, yielded pIC50 of < 5.70

The molecule CC(=O)c1c([S+]([O-])c2ccccc2)[nH]c2c(Br)ccc(Cl)c2c1=O (stereo not shown) , when measured on ovarian cancer cell lines, yielded pIC50 of < 5.70

Measured values drawn from patent US11464770B2 for this set.
